- experimental system: Voltage-gated inwardly rectifying potassium channel KCNH2 (Homo sapiens) (UniProt Q12809)
- Sequence (Q12809 whole entry, looked up): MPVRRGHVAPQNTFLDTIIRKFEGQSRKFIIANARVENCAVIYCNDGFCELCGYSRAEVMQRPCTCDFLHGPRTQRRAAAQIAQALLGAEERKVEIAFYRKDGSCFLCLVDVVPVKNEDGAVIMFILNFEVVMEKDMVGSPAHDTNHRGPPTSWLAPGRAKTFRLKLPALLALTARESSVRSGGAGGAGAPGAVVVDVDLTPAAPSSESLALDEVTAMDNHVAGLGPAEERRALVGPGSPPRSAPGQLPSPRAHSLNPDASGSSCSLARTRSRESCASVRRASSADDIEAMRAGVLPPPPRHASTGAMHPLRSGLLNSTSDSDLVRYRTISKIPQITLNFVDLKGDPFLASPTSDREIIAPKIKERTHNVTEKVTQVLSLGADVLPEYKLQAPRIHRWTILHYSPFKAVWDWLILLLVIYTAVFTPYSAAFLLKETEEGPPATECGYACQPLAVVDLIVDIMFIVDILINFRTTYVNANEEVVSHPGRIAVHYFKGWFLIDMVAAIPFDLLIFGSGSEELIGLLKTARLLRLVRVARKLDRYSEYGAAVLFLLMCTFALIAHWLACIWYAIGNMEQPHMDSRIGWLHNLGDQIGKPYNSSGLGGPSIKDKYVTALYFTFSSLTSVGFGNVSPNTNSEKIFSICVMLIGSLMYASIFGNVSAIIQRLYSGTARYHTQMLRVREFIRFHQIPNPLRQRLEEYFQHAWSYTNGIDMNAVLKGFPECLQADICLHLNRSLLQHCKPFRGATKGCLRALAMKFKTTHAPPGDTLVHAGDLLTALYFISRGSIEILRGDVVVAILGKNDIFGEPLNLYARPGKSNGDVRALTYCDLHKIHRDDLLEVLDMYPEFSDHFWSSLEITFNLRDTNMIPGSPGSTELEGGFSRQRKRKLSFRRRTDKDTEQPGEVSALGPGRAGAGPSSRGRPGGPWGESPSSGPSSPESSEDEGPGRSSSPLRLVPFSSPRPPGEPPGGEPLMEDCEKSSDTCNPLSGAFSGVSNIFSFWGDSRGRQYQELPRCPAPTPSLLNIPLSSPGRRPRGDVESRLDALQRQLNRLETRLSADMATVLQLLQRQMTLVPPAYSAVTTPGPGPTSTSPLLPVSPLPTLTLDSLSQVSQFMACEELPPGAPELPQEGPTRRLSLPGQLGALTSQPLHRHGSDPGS
- method: Human Ether-a-go-go-Related Gene (hERG) channel small molecule antagonists: fluorescence cell-based qHTS assay (AID 1671200); note: nearly all actives have a fitted effect of over 50% in size
- experimental context: hERG-U2OS cells, FluxOR thallium flux fluorescence; series mostly up to 76.8 µM
Records with an inconclusive call do not appear. Activity calls are given as the source filed them. Calls come from the whole dose curve; as a rule, active = well fitted inhibition curve with a large enough effect in the repeat runs; inconclusive = weak or mixed curves; inactive = flat fitted curve, though single readings scatter.
Classes used: 1 = active, 0 = inactive

                                   compound  label_class
0                             CCCCCCOCCOCCO            0
1        FC(F)(F)C(Cl)Br (stereo not drawn)            0
2                            c1ccc2ncccc2c1            0
3  O=C1OC2(c3ccccc31)c1cc(I)c(O)c(I)c1Oc1c2cc(I)c(O)c1I            0
4                    Cc1ccc(C(C)(C)C)c(O)c1            0
5  CCCCCCCCCCC(CO)CCCCCCCC (stereo not drawn)            0
6               CC(C)(C)c1cccc(C(C)(C)C)c1O            1
7                         CC1(C)OC(=O)NC1=O            0

---

- method: A CellTox Green Cytotoxicity Assay to monitor cytotoxicity in HEK293 cells - 24 hour (AID 1224875); note: nearly all actives have a fitted effect of over 45% in size
- experimental context: CellTox Green fluorescence; series mostly up to 76.8 µM
Records with an inconclusive call do not appear. Activity calls are given as the source filed them. Calls follow the shape of the dose curve; as a rule, active = well fitted activation curve with a large enough effect in the repeat runs; inconclusive = weak or mixed curves; inactive = flat fitted curve, though single readings scatter.
Classes used: active, inactive

item smiles	label class
COCCOCCOCCO	inactive
NCCOCCO	inactive
CC[C@]12CCCN3CCc4c(n(c5ccccc45)[C@@](O)(C(=O)OC)C1)[C@@H]32	inactive
CCCCCCCCCCCCCO	inactive
CC(=O)Nc1ccc2c(c1)Cc1cc(NC(C)=O)ccc1-2	inactive
O=Cc1ccccc1C=O	inactive
Nc1ccc2c(O)cc(S(=O)(=O)O)cc2c1	inactive
CC(=O)[C@@]1(O)CC[C@H]2[C@@H]3C[C@H](C)C4=CC(=O)C=C[C@]4(C)[C@@]3(F)[C@@H](O)C[C@@]21C	inactive
C[C@]12CC[C@@H]3c4ccc(O)cc4CC[C@H]3[C@@H]1CC[C@H]2O	inactive
OC[C@H]1O[C@@H]2O[C@H]3[C@H](O)[C@@H](O)[C@@H](O[C@H]4[C@H](O)[C@@H](O)[C@@H](O[C@H]5[C@H](O)[C@@H](O)[C@@H](O[C@H]6[C@H](O)[C@@H](O)[C@@H](O[C@H]7[C@H](O)[C@@H](O)[C@@H](O[C@H]1[C@H](O)[C@H]2O)O[C@@H]7CO)O[C@@H]6CO)O[C@@H]5CO)O[C@@H]4CO)O[C@@H]3CO	inactive
[O-]/[N+](=N\O)c1ccccc1	inactive
IC(I)I	inactive
C=C[C@@]1(C)CC(=O)[C@]2(O)[C@@]3(C)[C@@H](O)CCC(C)(C)[C@@H]3[C@H](O)[C@H](OC(C)=O)[C@@]2(C)O1	inactive
CC(=O)O[C@]1(C(C)=O)CC[C@H]2[C@@H]3C=C(C)C4=CC(=O)CC[C@]4(C)[C@H]3CC[C@@]21C	inactive
Cc1cccc(Nc2ccccc2C(=O)O)c1C	inactive
O=C1OC2(c3ccccc31)c1cc(I)c(O)c(I)c1Oc1c2cc(I)c(O)c1I	active
Cc1ccc(/C(=C\CN2CCCC2)c2ccccn2)cc1	inactive
CCCCCCOCCOCCO	inactive
CC(=O)Oc1c(C)c(C)c2c(c1C)CC[C@@](C)(CCC[C@H](C)CCC[C@H](C)CCCC(C)C)O2	inactive
C[N+](C)(C)CCO	inactive
Oc1c(Cl)ccc(Cl)c1Cl	inactive

---

- method: qHTS assay for identifying genotoxic compounds that show differential cytotoxicity against isogenic chicken DT40 cell lines with known DNA damage response pathways - wild type cell line (AID 743012); note: nearly all actives have a fitted effect of over 60% in size
- experimental context: DT40 wild type chicken cells viability, CellTiter-Glo, 40 h; series mostly up to 68.4 µM
Results filed as inconclusive are left out. Activity calls are given as the source filed them. Calls follow the shape of the dose curve; as a rule, active = well fitted cell-killing curve with a large enough effect in the repeat runs; inconclusive = weak or mixed curves, or effect the other way; inactive = no such curve, though single readings can be large or run the other way.
Labels: Yes (active), No (inactive)

>>> print(df.to_string())
                                 item_smiles  label_class
 0  CC(=O)[C@@]1(O)CC[C@H]2[C@@H]3C[C@H](C)C4=CC(=O)C=C[C@]4(C)[C@@]3(F)[C@@H](O)C[C@@]21C           No
 1                           Cc1ccc(C)c(O)c1           No
 2                          O=C1CCc2ccccc2O1           No
 3                Cc1ccc(N)c([N+](=O)[O-])c1           No
 4                CC(C)(Oc1ccc(Cl)cc1)C(=O)O           No
 5                           COC(=O)CC(=O)OC           No
 6                             C=CC(=O)OCCCC           No
 7                             CCCCCCOCCOCCO           No
 8                                 CN1CCOCC1           No
 9                                   NCCOCCO           No
10                    Cc1ccc(S(=O)(=O)O)cc1C           No
11                 C/C=C/C(=O)N(CC)c1ccccc1C          Yes
12  OC[C@@H](O)[C@@H](O[C@@H]1O[C@H](CO)[C@H](O)[C@H](O)[C@H]1O)[C@H](O)[C@@H](O)CO           No
13                        COC(=O)c1ccc(C)cc1           No

---

- experimental system: Retinoic acid receptor RXR-alpha (Homo sapiens) (UniProt P19793)
- Sequence (P19793 whole entry, looked up): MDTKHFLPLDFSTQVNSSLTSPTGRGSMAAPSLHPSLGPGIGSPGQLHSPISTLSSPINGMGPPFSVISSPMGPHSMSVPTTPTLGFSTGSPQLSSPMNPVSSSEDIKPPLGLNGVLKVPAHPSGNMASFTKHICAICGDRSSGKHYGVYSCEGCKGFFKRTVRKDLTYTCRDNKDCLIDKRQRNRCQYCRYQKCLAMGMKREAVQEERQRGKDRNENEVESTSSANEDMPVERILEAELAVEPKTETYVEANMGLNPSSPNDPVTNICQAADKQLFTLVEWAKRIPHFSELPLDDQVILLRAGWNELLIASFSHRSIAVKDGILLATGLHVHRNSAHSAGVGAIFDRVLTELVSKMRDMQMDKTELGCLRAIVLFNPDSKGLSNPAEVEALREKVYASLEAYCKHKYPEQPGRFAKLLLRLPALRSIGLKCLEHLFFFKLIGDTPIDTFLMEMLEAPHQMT
- method: qHTS assay to identify small molecule agonists of the RXR signaling pathway (AID 1159527); note: nearly all actives have a fitted effect of over 35% in size
- experimental context: HEK293T RXRa-UAS-bla, beta-lactamase ratio, 16 h; series mostly up to 76.8 µM
Results filed as inconclusive are left out. Active and inactive are the calls of the source. The call rests on the fitted dose curve.
result type: outcome

>>> df
                                item_smiles                       experimental_system  meas_value
0                              CC(=O)OC(C)C  Retinoic acid receptor RXR-alpha (Homo sapiens) (UniProt P19793)    inactive
1                                   CCCOCCO  Retinoic acid receptor RXR-alpha (Homo sapiens) (UniProt P19793)    inactive
2  COc1cc([C@H]2Oc3cc([C@H]4Oc5cc(O)cc(O)c5C(=O)[C@@H]4O)ccc3O[C@@H]2CO)ccc1O  Retinoic acid receptor RXR-alpha (Homo sapiens) (UniProt P19793)    inactive

---

- method: qHTS assay to identify small molecule antagonists of the thyroid receptor (TR) signaling pathway - cell viability counter screen (AID 743064); note: nearly all actives have a fitted effect of over 50% in size
- experimental context: GH3.TRE-Luc viability, CellTiter-Fluor, 24 h; series mostly up to 70.3 µM
Results filed as inconclusive are left out. Active and inactive are the calls of the source. The call rests on the fitted dose curve; in most records, active means well fitted cell-killing curve with a large enough effect in the repeat runs; inconclusive means weak or mixed curves, or effect the other way; inactive means no such curve, though single readings can be large or run the other way.
result type: outcome

In [3]: df
Out[3]:
                                    molecule  meas_value
 0  C[C@]12C=CC(=O)C=C1CC[C@H]1[C@@H]3C[C@@H](O)[C@](O)(C(=O)CO)[C@@]3(C)C[C@H](O)[C@@]12F    inactive
 1  CCc1cccc2c3c([nH]c12)C(CC)(CC(=O)O)OCC3 (centres undefined)    inactive
 2             Nc1ccc2c(c1)C(=O)c1ccccc1C2=O    inactive
 3                                   CCCOCCO    inactive
 4  CC(=O)Oc1ccc(C(c2ccc(OC(C)=O)cc2)c2ccccn2)cc1    inactive
 5  CC(=O)O[C@]1(C(C)=O)CC[C@H]2[C@@H]3C=C(Cl)C4=CC(=O)CC[C@]4(C)[C@H]3CC[C@@]21C    inactive
 6                       Cc1ccc(C(C)(C)C)cc1    inactive
 7  COC(=O)C(C)Oc1ccc(Oc2ncc(C(F)(F)F)cc2Cl)cc1 (centres undefined)    inactive
 8             COc1ccc(C(=O)c2ccccc2O)c(O)c1    inactive
 9                Cc1ccc(N)c([N+](=O)[O-])c1    inactive
10                           Cc1ccc(C)c(O)c1    inactive
11                                     [Na+]    inactive
12  CCC(Cc1c(I)cc(I)c(N)c1I)C(=O)O (centres undefined)    inactive
13  CC1(C)O[C@@H]2C[C@H]3[C@@H]4C[C@H](F)C5=CC(=O)C=C[C@]5(C)[C@@]4(F)[C@@H](O)C[C@]3(C)[C@]2(C(=O)CO)O1    inactive
14  C=C1C[C@H]2[C@@H]3C=C(C)C4=CC(=O)CC[C@]4(C)[C@H]3CC[C@]2(C)[C@@]1(OC(C)=O)C(C)=O    inactive
15  CC(=O)O[C@]1(C(C)=O)CC[C@H]2[C@@H]3C=C(C)C4=CC(=O)CC[C@]4(C)[C@H]3CC[C@@]21C    inactive
16  CC1(C)NC(=O)N(c2ccc([N+](=O)[O-])c(C(F)(F)F)c2)C1=O    inactive
17                                   NCCOCCO    inactive
18   C=CC(C)(O)CCC=C(C)C (centres undefined)    inactive
19                          C=CCOC(=O)C(=C)C    inactive
20  CC[C@]12CCCN3CCc4c(n(c5ccccc45)[C@@](O)(C(=O)OC)C1)[C@@H]32    inactive
21  CC(C)[N+](C)(CCOC(=O)C1c2ccccc2Oc2ccccc21)C(C)C    inactive
22                             CCCCCCOCCOCCO    inactive
23                         O=C(O)c1ccc(O)cc1    inactive

Reference source: PubChem BioAssay (Tox21)
